Source listed as ChEMBL document CHEMBL1933017.

system: Aspergillus niger; test: Antifungal activity against Aspergillus niger after 48 hrs by agar streak dilution method; assay type: functional
Please go through the items and note down their MIC.
Give the value; after it, write the unit.

-- ask Tell me its MIC given CCN1CCN(CC2SC(c3ccccc3[N+](=O)[O-])N(c3ccc(Nc4nc(Oc5cc(=O)n(C)c6ccccc56)nc(N(C)C)n4)cc3)C2=O)CC1 (centres undefined) as the entry.
-- reply 100 µg/mL

-- ask Tell me MIC reported for CCN1CCN(CC2SC(c3ccc(Cl)c(Cl)c3)N(c3ccc(Nc4nc(Oc5cc(=O)n(C)c6ccccc56)nc(N(C)C)n4)cc3)C2=O)CC1 (centres undefined)
-- reply 25 µg/mL

-- ask # return recorded MIC for input CCN1CCN(CC2SC(c3ccc(F)cc3)N(c3ccc(Nc4nc(Oc5cc(=O)n(C)c6ccccc56)nc(N(C)C)n4)cc3)C2=O)CC1 (centres undefined)
-- reply 12.5 µg/mL

-- ask Return value of MIC for input CCN1CCN(CC2SC(c3ccccc3C(=O)O)N(c3ccc(Nc4nc(Oc5cc(=O)n(C)c6ccccc56)nc(N(C)C)n4)cc3)C2=O)CC1 (centres undefined) , no commentary.
-- reply 100 µg/mL

* * *

tested on: Bacillus cereus; assay: Antibacterial activity against Bacillus cereus after 24 hrs by agar streak dilution method; format: functional
Please go through the items and note down their log10(MIC).
Answers are given as log10 of MIC in µg/mL.

-- ask Please supply the value of reported log10(MIC) for the item `O=C(O)c1cn(C2CC2)c2cc(N3CCNCC3)c(F)cc2c1=O`
-- reply 0.00

-- ask Name the recorded log10(MIC) of the compound listed here: CCN1CCN(CC2SC(c3ccc(Cl)c(Cl)c3)N(c3ccc(Nc4nc(Oc5cc(=O)n(C)c6ccccc56)nc(N(C)C)n4)cc3)C2=O)CC1 (centres undefined)
-- reply 1.10

-- ask Find the measured log10(MIC) of CCN1CCN(CC2SC(c3ccccc3)N(c3ccc(Nc4nc(Oc5cc(=O)n(C)c6ccccc56)nc(N(C)C)n4)cc3)C2=O)CC1 (centres undefined) and report it.
-- reply 2.00

-- ask Note down log10(MIC) recorded for CCN1CCN(CC2SC(c3ccccc3[N+](=O)[O-])N(c3ccc(Nc4nc(Oc5cc(=O)n(C)c6ccccc56)nc(N(C)C)n4)cc3)C2=O)CC1 (centres undefined)
-- reply 1.70

-- ask Quote log10(MIC) reported for CCN1CCN(CC2SC(c3ccccc3Br)N(c3ccc(Nc4nc(Oc5cc(=O)n(C)c6ccccc56)nc(N(C)C)n4)cc3)C2=O)CC1 (centres undefined) please.
-- reply 2.00

-- ask Tell us which log10(MIC) value is on record for CCN1CCN(CC2SC(c3cccc(O)c3O)N(c3ccc(Nc4nc(Oc5cc(=O)n(C)c6ccccc56)nc(N(C)C)n4)cc3)C2=O)CC1 (centres undefined)
-- reply 2.00

-- ask In one line, give reported log10(MIC) of the entry CCN1CCN(CC2SC(c3ccc(Br)cc3)N(c3ccc(Nc4nc(Oc5cc(=O)n(C)c6ccccc56)nc(N(C)C)n4)cc3)C2=O)CC1 (centres undefined) .
-- reply 2.00

-- ask # return recorded log10(MIC) for entry CCN1CCN(CC2SC(c3ccc([N+](=O)[O-])cc3)N(c3ccc(Nc4nc(Oc5cc(=O)n(C)c6ccccc56)nc(N(C)C)n4)cc3)C2=O)CC1 (centres undefined)
-- reply 1.70

-- ask Given CCN1CCN(CC2SC(c3ccc(O)cc3)N(c3ccc(Nc4nc(Oc5cc(=O)n(C)c6ccccc56)nc(N(C)C)n4)cc3)C2=O)CC1 (centres undefined) , respond with its log10(MIC).
-- reply 1.70

-- ask Using known records, supply log10(MIC) for CCN1CCN(CC2SC(c3ccc(C(=O)O)cc3)N(c3ccc(Nc4nc(Oc5cc(=O)n(C)c6ccccc56)nc(N(C)C)n4)cc3)C2=O)CC1 (centres undefined)
-- reply 1.10

-- ask Let me know recorded log10(MIC) for CCN1CCN(CC2SC(c3ccc(OC)c(OC)c3)N(c3ccc(Nc4nc(Oc5cc(=O)n(C)c6ccccc56)nc(N(C)C)n4)cc3)C2=O)CC1 (centres undefined) , thanks.
-- reply 1.10

-- ask For the compound CCN1CCN(CC2SC(c3ccc(OC)cc3)N(c3ccc(Nc4nc(Oc5cc(=O)n(C)c6ccccc56)nc(N(C)C)n4)cc3)C2=O)CC1 (centres undefined) , report log10(MIC).
-- reply 0.80

-- ask Return value of log10(MIC) for input CCN1CCN(CC2SC(c3ccccc3C(=O)O)N(c3ccc(Nc4nc(Oc5cc(=O)n(C)c6ccccc56)nc(N(C)C)n4)cc3)C2=O)CC1 (centres undefined) , no commentary.
-- reply 1.70

-- ask Note down log10(MIC) recorded for CCN1CCN(CC2SC(c3ccc(Cl)cc3Cl)N(c3ccc(Nc4nc(Oc5cc(=O)n(C)c6ccccc56)nc(N(C)C)n4)cc3)C2=O)CC1 (centres undefined)
-- reply 1.10

-- ask Look up log10(MIC) of CCN1CCN(CC2SC(c3ccc(C)cc3)N(c3ccc(Nc4nc(Oc5cc(=O)n(C)c6ccccc56)nc(N(C)C)n4)cc3)C2=O)CC1 (centres undefined) and report it.
-- reply 1.70

-- ask Using known records, supply log10(MIC) for CCN1CCN(CC2SC(c3ccc(F)cc3)N(c3ccc(Nc4nc(Oc5cc(=O)n(C)c6ccccc56)nc(N(C)C)n4)cc3)C2=O)CC1 (centres undefined)
-- reply 0.80

-- ask Tell me log10(MIC) reported for CCN1CCN(CC2SC(c3cccc(F)c3)N(c3ccc(Nc4nc(Oc5cc(=O)n(C)c6ccccc56)nc(N(C)C)n4)cc3)C2=O)CC1 (centres undefined)
-- reply 0.80

-- ask // fetch log10(MIC) given entry CCN1CCN(CC2SC(c3ccc(O)cc3O)N(c3ccc(Nc4nc(Oc5cc(=O)n(C)c6ccccc56)nc(N(C)C)n4)cc3)C2=O)CC1 (centres undefined)
-- reply 2.00

-- ask Consider the compound CCN1CCN(CC2SC(c3ccc(Cl)cc3)N(c3ccc(Nc4nc(Oc5cc(=O)n(C)c6ccccc56)nc(N(C)C)n4)cc3)C2=O)CC1 (centres undefined) and give its recorded log10(MIC).
-- reply 0.80
